Test system: Escherichia coli TOP10;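 note: peptides expressed intracellularly from a pBAD plasmid library in pooled LB shake-flask culture, induced with 0.3% L-arabinose, DNA abundance read by NGS, three biological replicates, DESeq2 with apeglm shrinkage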
PROTOCOL: shrunken log2 fold change of peptide-encoding DNA abundance (4.5 h post-induction vs induction); higher = less antimicrobial activity (less host growth inhibition)
EXPERIMENTAL_CONTEXT: time post-induction: 4.5 h; library: site-saturation at positions 5, 18, 19, 20
Binned shrunken log2 fold change; ranges: one (below -0.06), two (-0.06 to below 0.1), three (0.1 or more)

RRIRKRPPRLPRPRPRPAKQPRP; two
RRIRCRPPRLPRPRPRPLNFPRP; one
RRIRTRPPRLPRPRPRPCWFPRP; one
RRIRHRPPRLPRPRPRPAKIPRP; two

Lookup: Determine which band this sequence sits in: RRIRNRPPRLPRPRPRPPRGPRP
Found: three

Lookup: Pick a category. Item: RRIRRRPPRLPRPRPRPNQNPRP
Found: three

Lookup: Could you place RRIRDRPPRLPRPRPRPHYCPRP in its proper category? Many thanks.
Found: two

Lookup: Category of RRIRARPPRLPRPRPRPILHPRP , please.
Found: two

Lookup: Bin? RRIRWRPPRLPRPRPRPQMNPRP
Found: one

Lookup: Entry RRIRQRPPRLPRPRPRPTNTPRP belongs to which category?
Found: one

Lookup: Category of RRIRGRPPRLPRPRPRPAEMPRP :
Found: three

Lookup: Sort RRIRMRPPRLPRPRPRPFEFPRP into one of the categories.
Found: two

Lookup: Bin? RRIRNRPPRLPRPRPRPECMPRP
Found: three

Lookup: The entry to classify is RRIRLRPPRLPRPRPRPMMVPRP ; which class holds it?
Found: one

Lookup: Class for RRIRVRPPRLPRPRPRPDYKPRP ?
Found: three

Lookup: GET /class?item= RRIRNRPPRLPRPRPRPVTLPRP
Found: one

Lookup: Looking at RRIRPRPPRLPRPRPRPKLKPRP , which class would you pick?
Found: three

Lookup: Consider RRIRVRPPRLPRPRPRPSMYPRP . To which shrunken log2 fold change class does it belong?
Found: three

Lookup: Textbook exercise: identify the category of the sequence given here, RRIRVRPPRLPRPRPRPRCEPRP , according to its measured value.
Found: three

Lookup: Just checking, what class would you give RRIRNRPPRLPRPRPRPCTGPRP here?
Found: two

Lookup: Please indicate the class for RRIRFRPPRLPRPRPRPRFLPRP based on its shrunken log2 fold change.
Found: one

Lookup: Which bin, given its shrunken log2 fold change, does RRIRARPPRLPRPRPRPRETPRP occupy?
Found: three

Lookup: For this sequence, which bin applies? RRIRERPPRLPRPRPRPDWSPRP
Found: one

Lookup: Sort into band: RRIRHRPPRLPRPRPRPDATPRP
Found: three

Lookup: Class label required: RRIRDRPPRLPRPRPRPILQPRP
Found: one

Lookup: Where would RRIRPRPPRLPRPRPRPINAPRP land among the classes by reported shrunken log2 fold change?
Found: one

Lookup: Lab note: sort RRIRRRPPRLPRPRPRPTYDPRP into the matching shrunken log2 fold change band.
Found: two

Lookup: Each sequence maps to one class by shrunken log2 fold change. Which class for RRIRSRPPRLPRPRPRPQGLPRP ?
Found: two

Sourced from the supplement of paper PMC9112550
